assayedSystem: human OPRM1 (μ, MOR) (Homo sapiens)
Construct: host or cells: CHO-K1
Sequence (P35372 whole entry): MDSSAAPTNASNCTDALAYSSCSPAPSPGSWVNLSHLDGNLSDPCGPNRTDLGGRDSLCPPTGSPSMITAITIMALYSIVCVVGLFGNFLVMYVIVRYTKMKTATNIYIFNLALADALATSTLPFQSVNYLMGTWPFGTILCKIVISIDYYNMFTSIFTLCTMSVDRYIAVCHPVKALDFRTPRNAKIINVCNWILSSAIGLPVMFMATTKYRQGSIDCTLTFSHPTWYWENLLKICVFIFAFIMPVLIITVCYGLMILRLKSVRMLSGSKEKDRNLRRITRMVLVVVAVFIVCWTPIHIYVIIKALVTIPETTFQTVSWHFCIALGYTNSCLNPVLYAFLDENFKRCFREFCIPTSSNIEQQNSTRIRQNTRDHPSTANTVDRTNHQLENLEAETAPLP
protocolNotes: cell-based
protocolConditions: PathHunter human OPRM1 Arrestin CHO-K1 cell line; read-out: cAMP EC50
Structures can show the parent of a compound that is named as a salt.
Each record is given TRUE if its reported EC50 is strictly below 30 nM. Records at or above 30 nM are given FALSE.

CNC(CNC(=O)N1Cc2ccc(F)cc2C1)c1ccc(OC)cc1 (centres unmarked) [Compound 83] = FALSE
CN(C)[C@H](CCNC(=O)N[C@@H]1CCc2ccccc2C1)c1ccsc1 [Compound 71] = FALSE
CN(C)C1(CNC(=O)N[C@H]2CCc3ccccc3C2)CCCCC1 = FALSE
CN(C)C(CNC(=O)NC1CCc2ccccc2C1)c1ccccc1 (centres unmarked) [Compound 19a, hydrochloride] = FALSE

Kindly review the next molecule as well.
-- ask Threshold test, EC50 < 30 nM: CN(C)C(CNC(=O)N1Cc2ccccc2C1)c1ccccc1 (centres unmarked) [Compound 18a, hydrochloride]
-- reply TRUE
